assay: Cytotoxicity, MTT assay; type: cell-based; conditions: African green monkey, Vero cells (ATCC CCL-81)
measuredProperty: IC50 at 24 h

Data request: Requested field: IC50 at 24 h. Item: O=C(Nc1cc(=O)c2ccccc2o1)c1ccc([N+](=O)[O-])cc1[N+](=O)[O-] [6n]
Data returned: > 1000 µM

* * *

Would you mind telling me the reported melting point of each entry?
Give just the numeric value; °C need not be written.

Data request: Requested field: melting point. Item: O=C(Nc1cc(=O)c2ccccc2o1)C12CC3CC(CC(C3)C1)C2 [6y]
Data returned: 286

Data request: What about this compound? CCCNC(=O)c1cc(=O)c2ccccc2o1 [3w, 4-Oxo-N-propyl-4H-chromene-2-carboxamide]
Data returned: 166

Data request: What about this compound? COc1ccc(NC(=O)c2cc(=O)c3ccccc3o2)cc1OC [3s]
Data returned: 229

Data request: What about this compound? CCc1ccc(NC(=O)c2cc(=O)c3ccccc3o2)cc1 [3c]
Data returned: 179

Data request: What about this compound? COc1ccc(C(=O)Nc2cc(=O)c3ccccc3o2)cc1 [6p]
Data returned: 227

Data request: What about this compound? O=C(Nc1ccc([N+](=O)[O-])cc1)c1cc(=O)c2ccccc2o1 [3m]
Data returned: 307

Data request: What about this compound? COc1ccccc1C(=O)Nc1cc(=O)c2ccccc2o1 [6q]
Data returned: 260

Data request: What about this compound? O=C(Nc1cc(=O)c2ccccc2o1)c1ccc(Cl)cc1 [6f]
Data returned: 296

Data request: What about this compound? O=C(CN1CCN(C(=O)c2cc(=O)c3ccccc3o2)CC1)N1CCCC1 [3′i]
Data returned: 117

Data request: What about this compound? O=C(Nc1cc(=O)c2ccccc2o1)c1ccc([N+](=O)[O-])cc1 [6m]
Data returned: 323

Data request: What about this compound? CCCc1ccc(NC(=O)c2cc(=O)c3ccccc3o2)cc1 [3d]
Data returned: 173

Data request: What about this compound? O=C(Nc1ncccn1)c1cc(=O)c2ccccc2o1 [3v]
Data returned: 189

Data request: What about this compound? O=C(Nc1ccc(N2CCOCC2)cc1)c1cc(=O)c2ccccc2o1 [3u]
Data returned: 288

Data request: What about this compound? O=C(Nc1cc(=O)c2ccccc2o1)c1ccc([N+](=O)[O-])cc1[N+](=O)[O-] [6n]
Data returned: 252

Data request: What about this compound? Cc1ccc(C(=O)Nc2cc(=O)c3ccccc3o2)cc1 [6b]
Data returned: 240

Data request: What about this compound? O=C(Nc1cc(=O)c2ccccc2o1)c1ncccn1 [6v]
Data returned: 215

Data request: What about this compound? CCc1ccc(C(=O)Nc2cc(=O)c3ccccc3o2)cc1 [6c]
Data returned: 237

Data request: What about this compound? O=C(Nc1ccc([N+](=O)[O-])cc1[N+](=O)[O-])c1cc(=O)c2ccccc2o1 [3n]
Data returned: 330

Data request: What about this compound? O=C(Nc1ccc(Cl)cc1)c1cc(=O)c2ccccc2o1 [3f]
Data returned: 265

Data request: What about this compound? O=C(Nc1ccccc1Cl)c1cc(=O)c2ccccc2o1 [3i]
Data returned: 181

Data request: What about this compound? O=C(Nc1cc([N+](=O)[O-])cc([N+](=O)[O-])c1)c1cc(=O)c2ccccc2o1 [3o]
Data returned: 312

* * *

// returns no (0) unless melting point is strictly below 200 °C, in which case yes (1)

Data request: Hello, is melting point of the following compound strictly smaller than 200 °C? CCN(CC)Cc1cc(NC(=O)c2cc(=O)c3ccccc3o2)ccc1O [3′c]
Data returned: yes (1)

Data request: What about this compound? O=C(Nc1cc(=O)c2ccccc2o1)c1cc([N+](=O)[O-])cc([N+](=O)[O-])c1 [6o]
Data returned: no (0)

Data request: What about this compound? O=C(Nc1cc(=O)c2ccccc2o1)c1ccccc1 [6a, N-(4-Oxo-4H-chromen-2-yl) benzamide]
Data returned: no (0)

Data request: What about this compound? O=C(Nc1cc(=O)c2ccccc2o1)c1ccc(N2CCOCC2)cc1 [6u]
Data returned: no (0)

Data request: What about this compound? O=C(Nc1cc(=O)c2ccccc2o1)c1ccccc1Cl [6i]
Data returned: no (0)

Data request: What about this compound? O=C(Nc1ccc(F)cc1Cl)c1cc(=O)c2ccccc2o1 [3k]
Data returned: no (0)

Data request: What about this compound? CSc1ccccc1C(=O)Nc1cc(=O)c2ccccc2o1 [6r]
Data returned: no (0)

Data request: What about this compound? O=C(Nc1ccc(Cn2ccnc2)cc1)c1cc(=O)c2ccccc2o1 [3′d]
Data returned: no (0)

Data request: What about this compound? O=C(Nc1ccc(F)c(Cl)c1)c1cc(=O)c2ccccc2o1 [3l]
Data returned: no (0)

Data request: What about this compound? CC(C)(C)OC(=O)N1CCC(CNC(=O)c2cc(=O)c3ccccc3o2)CC1 [3′e]
Data returned: yes (1)

Data request: What about this compound? CCN(CC)CCCC(C)NC(=O)c1cc(=O)c2ccccc2o1 (stereo not shown) [3′g]
Data returned: yes (1)

Data request: What about this compound? O=C(NCCCn1ccnc1)c1cc(=O)c2ccccc2o1 [3′f]
Data returned: yes (1)

Data request: What about this compound? O=C(Nc1cc(=O)c2ccccc2o1)c1ccc(F)cc1 [6e]
Data returned: no (0)

Data request: What about this compound? O=C(Nc1ccc(F)cc1)c1cc(=O)c2ccccc2o1 [3e]
Data returned: no (0)

Data request: What about this compound? O=C(Nc1cc(=O)c2ccccc2o1)c1ccc(Br)cc1 [6g]
Data returned: no (0)

Data request: What about this compound? O=C(Nc1cc(=O)c2ccccc2o1)C1CCCCC1 [6x]
Data returned: no (0)

Data request: What about this compound? CSc1ccccc1NC(=O)c1cc(=O)c2ccccc2o1 [3r]
Data returned: yes (1)

* * *

Would you mind telling me the reported melting point of each entry?
Give just the numeric value; °C need not be written.

Data request: Requested field: melting point. Item: CCCc1ccc(C(=O)Nc2cc(=O)c3ccccc3o2)cc1
Data returned: 229

Data request: What about this compound? O=C(Nc1cc(=O)c2ccccc2o1)c1ccc(F)c(Cl)c1
Data returned: 224

Data request: What about this compound? O=C(NC1CCCCC1)c1cc(=O)c2ccccc2o1
Data returned: 179

Data request: What about this compound? COc1ccc(C(=O)Nc2cc(=O)c3ccccc3o2)cc1OC
Data returned: 246

Data request: What about this compound? CCc1cccc(NC(=O)c2cc(=O)c3ccccc3o2)c1
Data returned: 168

Data request: What about this compound? O=C(Nc1ccccc1)c1cc(=O)c2ccccc2o1 [3a, 4-Oxo-N-phenyl-4H-chromene-2-carboxamide]
Data returned: 229

Data request: What about this compound? COc1cc(NC(=O)c2cc(=O)c3ccccc3o2)cc(OC)c1
Data returned: 211

Data request: What about this compound? CCCC(=O)Nc1cc(=O)c2ccccc2o1 [6w, N-(4-Oxo-4H-chromen-2-yl) butyramide]
Data returned: 212

Data request: What about this compound? O=C(Nc1ccccc1F)c1cc(=O)c2ccccc2o1
Data returned: 225

Data request: What about this compound? O=C(Nc1cc(=O)c2ccccc2o1)c1ccc(F)cc1Cl
Data returned: 249

* * *

Would you mind telling me the reported melting point of each entry?
Give just the numeric value; °C need not be written.

Data request: Requested field: melting point. Item: O=C(NC12CC3CC(CC(C3)C1)C2)c1cc(=O)c2ccccc2o1 [3y]
Data returned: 201

Data request: What about this molecule? COc1cc(OC)cc(C(=O)Nc2cc(=O)c3ccccc3o2)c1 [6t]
Data returned: 198

Data request: What about this molecule? O=C(Nc1cc(=O)c2ccccc2o1)c1ccccc1F [6h]
Data returned: 194

Data request: What about this molecule? O=C(Nc1ccccc1Br)c1cc(=O)c2ccccc2o1 [3j]
Data returned: 195

Data request: What about this molecule? COc1ccccc1NC(=O)c1cc(=O)c2ccccc2o1 [3q]
Data returned: 199

The reported numbers originate from paper PMC9026348.
